Listing of recorded OD by entry.
- Assayed target: T1, TP-25 peptide (human, also: biotinylated, site not given here)
- T1 construct: 15-mer of human TDP-43 from the library spanning aa 199-285; captured on streptavidin plates
- T1 peptide: VMDVFIPKPFRAFAF
- Assay method text: indirect ELISA, biotinylated 15-mer peptide on streptavidin plate, hybridoma supernatant
- Description: Serum-free supernatants were harvested from stable hybridomas. The supernatants containing antibodies of interest were then screened by an indirect ELISA assay to determine epitopes. Epitopes were mapped using a library of TDP-43 15-mer peptides. […] After the final wash, plates were incubated with pNPP (Sigma-Aldrich, Switzerland) an AP substrate solution, and read at 405 nm using an ELISA plate reader (Tecan).
Where no end group is shown, it is not given here.

The cases that follow already have their OD on record.
{"columns": ["Binder", "Attribute measured", "Reading"],
 "data": [
  ["ACI-7062-406E3-Ab1 (antibody, IgG2a, V domains shown, also called 406E3D5; clone 5) VH: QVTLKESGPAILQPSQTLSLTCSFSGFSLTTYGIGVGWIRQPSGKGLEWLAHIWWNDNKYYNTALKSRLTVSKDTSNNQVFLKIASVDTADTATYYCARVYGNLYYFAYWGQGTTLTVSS VL: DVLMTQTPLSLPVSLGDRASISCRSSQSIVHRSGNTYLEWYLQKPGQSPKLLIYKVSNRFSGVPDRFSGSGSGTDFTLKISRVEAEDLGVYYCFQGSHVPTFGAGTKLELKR", "OD", "1 O.D. (405 nm)"],
  ["ACI-7062-406E3-Ab2 (antibody, IgG2a, V domains shown, also called 406E3G10; clone 6) VH: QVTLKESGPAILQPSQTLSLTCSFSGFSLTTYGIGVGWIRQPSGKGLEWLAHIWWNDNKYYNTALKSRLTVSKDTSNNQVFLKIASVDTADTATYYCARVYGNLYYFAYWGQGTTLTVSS VL: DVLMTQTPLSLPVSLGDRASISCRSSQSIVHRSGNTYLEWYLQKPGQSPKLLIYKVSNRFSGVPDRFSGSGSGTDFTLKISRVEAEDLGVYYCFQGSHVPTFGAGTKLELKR", "OD", "0.9 O.D. (405 nm)"]
]}

--- query ---
Request: Given the entry ACI-7062-404D6-Ab2 (antibody, IgG3, V domains shown, also called 404D6E11; clone 4) VH: QVTLKESGPGILQPSQTLSLTCSFSGFSLSTYGIGVGWIRQPSGKGLEWLAHIWWNDYKYYNTALKSRLTISKDTSNNRVFLKIASVDTADTATYYCARVYGNLYYFDYWGQGTTLTVSS VL: DVLMTQTPLSLPVSLGDQASISCRSSQSIVHGSGNTYLEWYLQKPGQSPKLLIYKVSNRFSGVPDRFSGSGSGTDFTLRISRVEAEDLGVYYCFQGSHVPTFGAGTKLELKR , report its measured OD.
Response: 0.9 O.D. (405 nm)
